Data credit: patent US11566007B2

- ASSAYED_TARGET: KRAS G13D (Homo sapiens (Human), UniProt P01116+P62937, G13D)
- Sequence (P01116-2 other isoform, or with tags, fused parts or gaps G13D, one chain of several): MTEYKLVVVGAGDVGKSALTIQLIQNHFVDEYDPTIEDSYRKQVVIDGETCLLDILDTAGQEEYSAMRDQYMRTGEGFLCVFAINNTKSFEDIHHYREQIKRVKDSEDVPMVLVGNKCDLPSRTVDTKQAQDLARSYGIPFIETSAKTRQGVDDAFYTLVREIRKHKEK
- ASSAY_SUMMARY: Ras-Raf (BRAF RBD) disruption / FRET / MOA assay, KRAS G13D
- Assay type: biochemical
- STATED_CONDITIONS: read-out: IC50* KRAS G13D FRET data
OBSERVATION_TYPE: IC50

Would you please look over these solved cases?
>  <COMPOUND>
C=CC(=O)N1CC[C@H](C(=O)N(C)[C@H](C(=O)N[C@H]2Cc3cccc(c3)-c3ccc4c(c3)c(c(-c3cc5c(nc3[C@H](C)OC)CN(C)CC5)n4CC)CC(C)(C)COC(=O)[C@@H]3CCCN(N3)C2=O)C(C)C)C1 (atropisomer, axis not shown)

>  <IC50>
1000 to 10000 nM

$$$$
>  <COMPOUND>
CCn1c(-c2cccnc2[C@H](C)OC)c2c3cc(ccc31)-c1cc(O)cc(c1)C[C@H](NC(=O)[C@H](C(C)C)N(C)C(=O)N1CCN(C(=O)/C=C/CN(C)C)CC1)C(=O)N1CCC[C@H](N1)C(=O)OCC(C)(C)C2 (atropisomer, axis not shown)

>  <IC50>
10 to 100 nM

$$$$
>  <COMPOUND>
C=CS(=O)(=O)N1CCC2(CCN([C@H](C(=O)N[C@H]3Cc4cc(O)cc(c4)-c4ccc5c(c4)c(c(-c4cccnc4[C@H](C)OC)n5CC)CC(C)(C)COC(=O)[C@@H]4CCCN(N4)C3=O)C(C)C)C2=O)CC1 (atropisomer, axis not shown)

>  <IC50>
100 to 1000 nM

$$$$

Let's switch to this compound now.
Sure, the documented IC50 for C=CC(=O)N1CC[C@H](C(=O)N(C)[C@H](C(=O)N[C@H]2Cc3cc(OC4O[C@H](CO)[C@@H](O)[C@H](O)[C@H]4O)cc(c3)-c3ccc4c(c3)c(c(-c3cccnc3COC)n4CC)CC(C)(C)COC(=O)[C@@H]3CCCN(N3)C2=O)C(C)C)C1 (stereo partly shown) is > 10000 nM

---

- ASSAYED_TARGET: KRAS Q61H (Homo sapiens (Human), UniProt P01116+P62937, Q61H)
- Sequence (P01116-2 other isoform, or with tags, fused parts or gaps Q61H): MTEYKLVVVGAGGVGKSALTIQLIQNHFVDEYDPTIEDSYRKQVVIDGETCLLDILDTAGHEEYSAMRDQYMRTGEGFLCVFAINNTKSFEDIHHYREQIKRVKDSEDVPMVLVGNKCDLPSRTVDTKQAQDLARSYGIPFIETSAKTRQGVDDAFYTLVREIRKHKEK
- Sequence (P62937 whole entry): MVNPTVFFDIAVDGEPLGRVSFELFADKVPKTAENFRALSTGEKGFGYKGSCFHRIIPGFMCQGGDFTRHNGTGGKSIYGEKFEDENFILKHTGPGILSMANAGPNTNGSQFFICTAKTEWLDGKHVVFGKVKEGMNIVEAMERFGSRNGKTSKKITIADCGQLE
- ASSAY_SUMMARY: Ras-Raf (BRAF RBD) disruption / FRET / MOA assay, KRAS Q61H
- Type: biochemical
- STATED_CONDITIONS: Ras-Raf disruption/FRET/MOA assay; class symbols; read-out: KRAS Q61H FRET data IC50
Readings of IC50 for the listed compounds

>  <COMPOUND>
CCn1c(-c2cccnc2[C@H](C)OC)c2c3cc(ccc31)-c1cccc(c1)C[C@H](NC(=O)[C@H](C(C)C)N1CC[C@@]3(CCN(C(=O)C#C[C@H]4COCCN4C4COC4)C3)C1=O)C(=O)N1CCC[C@H](N1)C(=O)OCC(C)(C)C2 (atropisomer, axis not shown)

>  <IC50>
100 to 1000 nM

$$$$

Sure, the documented IC50 for C=CC(=O)N1CCC[C@H]2CN(C(=O)N(C)[C@H](C(=O)N[C@H]3Cc4nc(cs4)-c4ccc5c(c4)c(c(-c4cccnc4[C@H](C)OC)n5CC)CC(C)(C)COC(=O)[C@@H]4CCCN(N4)C3=O)C(C)C)C[C@H]21 (atropisomer, axis not shown) is 100 to 1000 nM

Sure, the documented IC50 for C=CC(=O)N1CCO[C@H]2CN(C(=O)N(C)[C@H](C(=O)N[C@H]3CC4=NN=C(O4)c4ccc5c(c4)c(c(-c4cccnc4[C@H](C)OC)n5CC(F)(F)F)CC(C)(C)COC(=O)[C@@H]4CCCN(N4)C3=O)C(C)C)C[C@H]21 (atropisomer, axis not shown) is 1000 to 10000 nM

Sure, the documented IC50 for C=CC(=O)N(C)C(=O)N(C)[C@H](C(=O)N[C@H]1Cc2nc(cs2)-c2ccc3c(c2)c(c(-c2cccnc2[C@H](C)OC)n3CC)CC(C)(C)COC(=O)[C@@H]2CCCN(N2)C1=O)C(C)C (atropisomer, axis not shown) is > 10000 nM

---

- ASSAYED_TARGET: KRAS G12V (Homo sapiens (Human), UniProt P01116+P62937, G12V)
- Sequence (P01116-2 other isoform, or with tags, fused parts or gaps G12V, one chain of several): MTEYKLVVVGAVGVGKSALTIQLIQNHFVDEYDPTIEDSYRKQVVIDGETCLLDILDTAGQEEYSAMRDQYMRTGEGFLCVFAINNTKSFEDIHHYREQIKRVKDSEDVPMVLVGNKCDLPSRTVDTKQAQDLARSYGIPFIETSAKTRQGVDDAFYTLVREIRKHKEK
- ASSAY_SUMMARY: Ras-Raf (BRAF RBD) disruption / FRET / MOA assay, KRAS G12V
- Assay type: biochemical
- STATED_CONDITIONS: read-out: IC50* KRAS G12V FRET data
pIC50: −log10 of the molar value.
OBSERVATION_TYPE: pIC50

>  <COMPOUND>
C=CC(=O)N1CC[C@H](C(=O)N(C)[C@H](C(=O)N[C@H]2Cc3cc(O)cc(c3)-c3ccc4c(c3)c(c(-c3cn(C)cn3)n4CC)CC(C)(C)COC(=O)[C@@H]3CCCN(N3)C2=O)C(C)C)C1 [Example A113]

>  <ASSAYED_TARGET>
KRAS G12V (Homo sapiens (Human), UniProt P01116+P62937, G12V)

>  <pIC50>
5.00 to 6.00

$$$$
>  <COMPOUND>
C=CC(=O)N1CC[C@H](C(=O)N(C)[C@H](C(=O)N[C@H]2Cc3nc(cs3)-c3ccc4c(c3)c(c(-c3cccnc3[C@H](C)OC)n4CC(F)(F)F)CC(C)(C)COC(=O)[C@@H]3CCCN(N3)C2=O)C(C)C)C1 (atropisomer, axis not shown) [Example A502]

>  <ASSAYED_TARGET>
KRAS G12V (Homo sapiens (Human), UniProt P01116+P62937, G12V)

>  <pIC50>
5.00 to 6.00

$$$$
>  <COMPOUND>
C/C=C(\C#N)C(=O)N1CC[C@H](C(=O)N(C)[C@H](C(=O)N[C@H]2Cc3cc(O)cc(c3)-c3ccc4c(c3)c(c(-c3cccnc3COC)n4CC)CC(C)(C)COC(=O)[C@@H]3CCCN(N3)C2=O)C(C)C)C1 [Example A178]

>  <ASSAYED_TARGET>
KRAS G12V (Homo sapiens (Human), UniProt P01116+P62937, G12V)

>  <pIC50>
6.00 to 7.00

$$$$
>  <COMPOUND>
C=CC(=O)NCCN(C)C(=O)N(C)[C@H](C(=O)N[C@H]1Cc2nc(cs2)-c2ccc3c(c2)c(c(-c2cccnc2[C@H](C)OC)n3CC)CC(C)(C)COC(=O)[C@@H]2CCCN(N2)C1=O)C(C)C (atropisomer, axis not shown) [Example A438]

>  <ASSAYED_TARGET>
KRAS G12V (Homo sapiens (Human), UniProt P01116+P62937, G12V)

>  <pIC50>
6.00 to 7.00

$$$$
>  <COMPOUND>
C=CC(=O)N1CC[C@H](C(=O)N(C)[C@H](C(=O)N[C@H]2Cc3cc(O)cc(c3)-c3ccc4c(c3)c(c(-c3csc(N(C)C)n3)n4CC)CC(C)(C)COC(=O)[C@@H]3CCCN(N3)C2=O)C(C)C)C1 [Example A303]

>  <ASSAYED_TARGET>
KRAS G12V (Homo sapiens (Human), UniProt P01116+P62937, G12V)

>  <pIC50>
< 5.00

$$$$

Sure, the documented pIC50 for C#CC(=O)N1CC[C@H](C(=O)N(C)[C@H](C(=O)N[C@H]2Cc3cc(O)cc(c3)-c3ccc4c(c3)c(c(-c3cnccc3[C@H](C)OC)n4CC)CC(C)(C)COC(=O)[C@@H]3CCCN(N3)C2=O)C(C)C)C1 [Example A150] is 6.00 to 7.00

Sure, the documented pIC50 for CCn1c(-c2cccnc2[C@H](C)OC)c2c3cc(ccc31)-c1cccc(c1)C[C@H](NC(=O)[C@H](C(C)C)N1CC[C@@]3(CCN(C(=O)C#C[C@@H]4COCCN4C4COC4)C3)C1=O)C(=O)N1CCC[C@H](N1)C(=O)OCC(C)(C)C2 [Example A566] is 5.00 to 6.00

Sure, the documented pIC50 for CCn1c(-c2cccnc2[C@H](C)OC)c2c3cc(ccc31)N1CCC[C@@H](C[C@H](NC(=O)[C@@H](COC3CN(C(=O)C#CC(C)(C)N(C)C)C3)C(C)C)C(=O)N3CCC[C@H](N3)C(=O)OCC(C)(C)C2)C1 (atropisomer, axis not shown) [Example A715] is < 5.00

---

- ASSAYED_TARGET: NRAS WT (Homo sapiens (Human), UniProt P01111+P62937)
- Sequence (P01111 whole entry, one chain of several): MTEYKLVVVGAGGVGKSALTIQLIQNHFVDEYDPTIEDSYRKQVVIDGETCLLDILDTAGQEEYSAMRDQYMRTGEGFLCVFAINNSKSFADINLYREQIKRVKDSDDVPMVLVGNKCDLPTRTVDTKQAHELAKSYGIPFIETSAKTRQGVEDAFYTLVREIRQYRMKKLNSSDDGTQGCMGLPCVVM
- ASSAY_SUMMARY: Ras-Raf (BRAF RBD) disruption / FRET / MOA assay, NRAS WT
- Assay type: biochemical
- STATED_CONDITIONS: read-out: IC50* NRAS WT FRET data
pIC50: −log10 of the molar value.
OBSERVATION_TYPE: pIC50

>  <COMPOUND>
CO[C@@H](C)c1ncccc1-c1c2c3cc(ccc3n1CC(F)(F)F)-c1cnc(o1)C[C@H](NC(=O)[C@H](C(C)C)N(C)C(=O)[C@H]1CCN(C(=O)C#CC(C)(C)N(C)C)C1)C(=O)N1CCC[C@H](N1)C(=O)OCC(C)(C)C2 (atropisomer, axis not shown)

>  <pIC50>
5.00 to 6.00

$$$$
>  <COMPOUND>
CCn1c(-c2cccnc2[C@H](C)OC)c2c3cc(ccc31)-c1cc(F)cc(c1)C[C@H](NC(=O)[C@@H](COC1CN(C(=O)C#CC(C)(C)N(C)C)C1)C(C)C)C(=O)N1CCC[C@H](N1)C(=O)OCC(C)(C)C2 (atropisomer, axis not shown)

>  <pIC50>
< 5.00

$$$$
>  <COMPOUND>
CO[C@@H](C)c1ncccc1-c1c2c3cc(ccc3n1CC(F)(F)F)-c1csc(n1)C[C@H](NC(=O)[C@H](C(C)C)N(C)C(=O)N1C[C@@H]3OCCN(C(=O)/C=C/CF)[C@@H]3C1)C(=O)N1CCC[C@H](N1)C(=O)OCC(C)(C)C2 (atropisomer, axis not shown)

>  <pIC50>
6.00 to 7.00

$$$$
>  <COMPOUND>
C=CC(=O)N(C)[C@H]1CN(C(=O)N(C)[C@H](C(=O)N[C@H]2Cc3nc(cs3)-c3ccc4c(c3)c(c(-c3cccnc3[C@H](C)OC)n4CC)CC(C)(C)COC(=O)[C@@H]3CCCN(N3)C2=O)C(C)C)C[C@@H]1F (atropisomer, axis not shown)

>  <pIC50>
6.00 to 7.00

$$$$
>  <COMPOUND>
CCn1c(-c2cccnc2[C@H](C)OC)c2c3cc(ccc31)-c1cc(CF)cc(c1)C[C@H](NC(=O)[C@H](C(C)C)N1CC[C@]3(CCN(C(=O)C#CC(C)(C)N(C)C)C3)C1=O)C(=O)N1CCC[C@H](N1)C(=O)OCC(C)(C)C2 (atropisomer, axis not shown)

>  <pIC50>
5.00 to 6.00

$$$$
>  <COMPOUND>
C=CC(=O)N1CC[C@]2(CCN(C(=O)N(C)[C@H](C(=O)N[C@H]3Cc4nc(cs4)-c4ccc5c(c4)c(c(-c4cccnc4[C@H](C)OC)n5CC)CC(C)(C)COC(=O)[C@@H]4CCCN(N4)C3=O)C(C)C)C2)C1 (atropisomer, axis not shown)

>  <pIC50>
7.00 to 8.00

$$$$

Let's switch to this compound now.
Sure, the documented pIC50 for `C=CC(=O)N1CC[C@H](C(=O)N(C)[C@H](C(=O)N[C@H]2Cc3cc(O)cc(c3)-c3ccc4nc(-c5cccnc5[C@H](C)OC)n(c4c3)CC(C)(C)COC(=O)[C@@H]3CCCN(N3)C2=O)C(C)C)C1` is < 5.00
